Numbers sourced from patent US4829069A.

- RUN DESCRIPTION: Toxicity, LD50 (P.O.)
- CONDITION LABEL: in vivo, po

{"SAMPLE SMILES": "c1ccc(CSc2ncnc3ccccc23)nc1", "LD50": "> 1000 mg/kg"}
